Value source: paper PMC9090415

Hi there, I'd appreciate the recorded % inhibition Apol 40' for every entry that follows.
target: P. falciparum apicoplast DNA polymerase (Pf-apPOL) (Plasmodium falciparum, UniProt Q8ILY1); test: Fluorescence-based high-throughput DNA polymerase assay (molecular beacon), primary screen and dose-response; type: biochemical; conditions: DRC-2, 40', concentration 40 (unit not given);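 also: compound concentration given in µM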
Sequence (Q8ILY1 entry or part of it): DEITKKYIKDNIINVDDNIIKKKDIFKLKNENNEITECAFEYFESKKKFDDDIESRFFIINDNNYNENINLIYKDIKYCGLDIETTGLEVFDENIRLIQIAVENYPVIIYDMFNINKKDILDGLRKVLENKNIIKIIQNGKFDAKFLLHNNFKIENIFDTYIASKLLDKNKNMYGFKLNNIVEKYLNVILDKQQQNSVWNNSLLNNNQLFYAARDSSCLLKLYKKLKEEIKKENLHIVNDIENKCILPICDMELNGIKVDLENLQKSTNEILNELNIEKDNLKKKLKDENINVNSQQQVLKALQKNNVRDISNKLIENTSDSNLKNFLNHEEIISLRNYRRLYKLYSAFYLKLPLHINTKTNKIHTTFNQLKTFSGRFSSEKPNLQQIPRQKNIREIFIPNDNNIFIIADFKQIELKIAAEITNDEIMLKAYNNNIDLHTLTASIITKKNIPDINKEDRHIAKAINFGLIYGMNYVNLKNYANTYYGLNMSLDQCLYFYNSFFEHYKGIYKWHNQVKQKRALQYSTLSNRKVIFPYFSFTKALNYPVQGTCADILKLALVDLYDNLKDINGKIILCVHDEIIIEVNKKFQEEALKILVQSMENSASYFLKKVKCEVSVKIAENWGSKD
Numbers only, in %.

Give % inhibition Apol 40' for all compounds that follow.
1. Cc1ccc(CCNC(=O)c2cnn3c(O)c(Cc4ccccc4F)c(C)nc23)cc1 [KU0097142]
2. Nc1c(S(=O)(=O)O)cc(Nc2ccccc2)c2c1C(=O)c1ccccc1C2=O [KU0045407]
3. COc1cc(NC(=O)c2ccccc2)c(OC)cc1NC(=O)Cc1cccs1 [KU0032113]
4. O=C(Cn1ccc2c(=O)[nH]ccc21)Nc1ccc(Cl)cc1 [Molecule 36, O=C(Cn1ccc2c1cc[nH]c2=O)Nc1ccc(cc1)Cl]

Result string:
1: 67; 2: 86; 3: 61; 4: 63

Give % inhibition Apol 40' for all compounds that follow.
1. NC(=O)c1cc[n+](CC2=C(C(=O)[O-])N3C(=O)[C@@H](NC(=O)[C@@H](c4ccccc4)S(=O)(=O)[O-])[C@H]3SC2)cc1.[Na+] [Molecule 9]
2. O=C1N/C(=N/c2ccccc2Cl)S/C1=C/c1ccc([N+](=O)[O-])o1 [KU0054524]
3. O=C(Nc1c2c(nn1-c1ccc(Oc3ccccc3)cc1)CSC2)c1ccco1 [KU0055927]
4. COc1ccc(-c2c(C(F)(F)F)nn3c(=O)cc(-c4cccc([N+](=O)[O-])c4)[nH]c23)cc1 [Molecule 16]
5. NS(=O)(=O)c1ccc(NC(=O)c2ccc(N3C(=O)CCC3=O)cc2)cc1 [KU0025331]

Result string:
[76, 58, 69, 75, 67]

Give % inhibition Apol 40' for all compounds that follow.
1. CCOc1ccc(/C=C2\N=C(c3cc([N+](=O)[O-])cc([N+](=O)[O-])c3)OC2=O)cc1 [Molecule 97]
2. Cc1cccc(CC(=O)N2CCc3c(nc4cc(-c5ccccc5)[nH]n4c3=O)C2)c1 [Molecule 12]

Result string:
1: 76; 2: 66
